Test system: P. falciparum 3D7
Assay: Cultures of P. falciparum 3D7, flow cytometry quantitation of parasitemia
Format: cell-based
Settings: Plasmodium falciparum; 3D7 strain; read-out: IC50 (3D7)
measurement-kind: IC50 (nM)
Give bare numbers, in nM.

**Query** Give the reported IC50 for NCCc1cccc(-c2ccc3sc4ccc(-c5cccc(CCN)c5)cc4c3c2)c1 [Compound 106] (system: P. falciparum 3D7).
**Result** 150
